# assay procedure: Stability in C57BL/6J mouse whole blood assessed as half-life
# Assay type: ADME, tissue-based
Class rule met: half-life at least 9 min. Class rule not met: half-life below 9 min.

{"query smiles": "CC(C)=CCC/C(C)=C/CC/C(C)=C/CC[C@]1(C)CCc2cc(OC(=O)CCCC(=O)O)cc(C)c2O1", "class label": "rule not met"}
{"query smiles": "CC(C)=CCC/C(C)=C/CC/C(C)=C/CC[C@]1(C)CCc2cc(OC(=O)CCC(=O)O)cc(C)c2O1", "class label": "rule met"}
{"query smiles": "CCN(CC)CCOC(=O)c1ccc(N)cc1", "class label": "rule met"}
{"query smiles": "CC(C)=CCC/C(C)=C/CC/C(C)=C/CC[C@]1(C)CCc2cc(OC(=O)CCCCCC(=O)O)cc(C)c2O1", "class label": "rule not met"}
{"query smiles": "CC(C)=CCC/C(C)=C/CC/C(C)=C/CC[C@]1(C)CCc2cc(OC(=O)/C=C/C(=O)O)cc(C)c2O1", "class label": "rule met"}
{"query smiles": "CC(C)=CCC/C(C)=C/CC/C(C)=C/CC[C@]1(C)CCc2cc(OC(=O)CCCCC(=O)O)cc(C)c2O1", "class label": "rule not met"}
{"query smiles": "COC(=O)CCC(=O)Oc1cc(C)c2c(c1)CC[C@@](C)(CC/C=C(\\C)CC/C=C(\\C)CCC=C(C)C)O2", "class label": "rule met"}
